- test-target: MK2 (Homo sapiens)
- method-notes: MK2 degradation in human SW1353 cells (MSD, 24 h)
- Format: cell-based
- Set-up: endogenous in cells; host or cells: SW-1353 (ATCC HTB-94)
- experimental-conditions: read-out: MK2 MSD SW1353 degradation 24 h GMean External Abs DC50
DC50: recorded values

{"compound": "C[C@@H]1CNc2c(sc3ccc4nc(-c5cnc(N6CCN(CC7CCN(c8cccc9c8n(C)c(=O)n9C8CCC(=O)NC8=O)CC7)CC6)nc5)ccc4c23)C(=O)N1 (stereo partly drawn) [Compound I-281]", "test-target": "MK2 (Homo sapiens)", "DC50": "1 to 10 nM"}
{"compound": "C[C@@H]1CNc2c(sc3ccc4nc(-c5ccc(CNC(=O)CCCCCCCc6ccc7c(c6)n(C)c(=O)n7C6CCC(=O)NC6=O)cc5)ccc4c23)C(=O)N1 (stereo partly drawn) [Compound I-87]", "test-target": "MK2 (Homo sapiens)", "DC50": "1 to 10 nM"}

Continue with the compound presented below.
GET /values?readout=DC50&item= Cn1c(=O)n(C2CCC(=O)NC2=O)c2cccc(CCCCN3CC4(CCN(c5ccc6c(c5)Cn5cc(-c7ccc(F)cc7)cc5-c5nccn5-6)C4)C3)c21 (stereo not drawn) [Compound I-167] > 100 nM

====

- test-target: MK2 (Homo sapiens, UniProt P49137)
- Sequence (P49137 whole entry): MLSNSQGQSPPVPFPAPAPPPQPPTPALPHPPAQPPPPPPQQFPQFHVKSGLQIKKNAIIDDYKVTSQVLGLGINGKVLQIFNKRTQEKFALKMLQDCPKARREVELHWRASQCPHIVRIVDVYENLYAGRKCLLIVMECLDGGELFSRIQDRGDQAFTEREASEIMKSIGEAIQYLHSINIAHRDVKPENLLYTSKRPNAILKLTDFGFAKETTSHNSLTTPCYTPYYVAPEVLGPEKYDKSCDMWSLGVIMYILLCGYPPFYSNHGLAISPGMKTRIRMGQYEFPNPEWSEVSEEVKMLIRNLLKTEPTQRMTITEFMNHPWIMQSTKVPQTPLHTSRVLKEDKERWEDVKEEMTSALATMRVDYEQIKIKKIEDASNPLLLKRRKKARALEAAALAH
- method-notes: MK2 degradation in human SW1353 cells (MSD, 24 h)
- Assay type: cell-based
- Parameters: endogenous in cells; host or cells: SW-1353 (ATCC HTB-94)
- experimental-conditions: read-out: MK2 MSD SW 1353 24 h Dmax %
# Lookup of reported Dmax keyed by entry

{"compound": "Cn1c(=O)n(C2CCC(=O)NC2=O)c2ccc(N3CCC(CN4CCN(c5ccc6occc6c5-c5cc(Nc6ccnc(N)n6)cc6cn[nH]c56)CC4)CC3)cc21 (centres unmarked)", "Dmax": "< 50%"}
{"compound": "C[C@@H]1CN(C)c2c(sc3ccc4nc(-c5ccc(N6CCN(CC7CCN(c8ccc9c(c8)n(C)c(=O)n9C8CCC(=O)NC8=O)CC7)CC6)nc5)ccc4c23)C(=O)N1 (some centres unmarked)", "Dmax": "> 75%"}
{"compound": "C[C@@H]1CNc2c(sc3ccc4nc(-c5cnc(N6CCN(CC7CCN(c8ccc9c(c8)n(C)c(=O)n9C8CCC(=O)NC8=O)CC7)CC6)nc5)ccc4c23)C(=O)N1 (some centres unmarked)", "Dmax": "> 75%"}
{"compound": "C[C@@H]1CNc2c(sc3ccc4nc(-c5ccc(N6CCN(CC7CN(c8ccc9c(c8)n(C)c(=O)n9C8CCC(=O)NC8=O)C7)CC6)cc5Cl)ccc4c23)C(=O)N1 (some centres unmarked)", "Dmax": "> 75%"}

Shifting focus to the compound that follows.
Quick check: Dmax on MK2 (Homo sapiens, UniProt P49137), item C[C@@H]1CNc2c(sc3ccc4nc(-c5cncc(N6CCN(CCCCCc7cccc8c7n(C)c(=O)n8C7CCC(=O)NC7=O)CC6)c5)ccc4c23)C(=O)N1 (some centres unmarked) ? > 75%

====

- test-target: MK2 (Homo sapiens, UniProt P49137)
- method-notes: MK2 degradation in human SW1353 cells (MSD, 24 h)
- Assay type: cell-based
- Parameters: endogenous in cells; host or cells: SW-1353 (ATCC HTB-94)
- experimental-conditions: read-out: MK2 MSD SW 1353 24 h Dmax %
experimental-readout: Dmax

Known Dmax results, listed for orientation:
{"compound": "Cn1c(=O)n(C2CCC(=O)NC2=O)c2ccc(N3CC(CN4CCN(c5ccc(-c6cc(-c7cc8c([nH]7)C7(CCCC7)CNC8=O)ccn6)c(F)c5)CC4)C3)cc21 (centres unmarked)", "reported-value": "> 75%"}
{"compound": "COc1ccc2c(c1CCN1CCN(c3ccc(-c4cc(-c5cc6c([nH]5)C5(CC5)CNC6=O)ccn4)cc3)CC1)n(C)c(=O)n2C1CCC(=O)NC1=O (centres unmarked)", "reported-value": "> 75%"}

Data request, read-out Dmax, for C[C@@H]1CNc2c(sc3ccc4nc(N5C[C@H]6C[C@@H]5CN6CC5CCN(c6cccc7c6n(C)c(=O)n7C6CCC(=O)NC6=O)CC5)ccc4c23)C(=O)N1 (some centres unmarked) < 50%

Record: CN1CC2(CNC(=O)c3c2[nH]c2c3CCc3cnc(-c4ccc(N5CCN(CCCCc6cccc7c6n(C)c(=O)n7C6CCC(=O)NC6=O)CC5)cc4F)cc3-2)C1 (centres unmarked) > 75%

Do the same for C[C@@H]1CNc2c(sc3ccc4nc(-c5cccc(C#CCCNC(=O)CCCCCCCc6cccc7c6n(C)c(=O)n7C6CCC(=O)NC6=O)c5)ccc4c23)C(=O)N1 (some centres unmarked) please > 75%

====

Below, each entry is listed alongside its reported Dmax.
- test-target: MK2 (Homo sapiens, UniProt P49137)
- method-notes: MK2 degradation in human THP-1 monocytic cells (MSD, 24 h)
- Type: cell-based
- Parameters: endogenous in cells
- experimental-conditions: THP-1, THP-1 cells

Worked examples, 8 compounds total:
{"compound": "C[C@@H]1CNc2c(sc3ccc4nc(N5CCCN(CC6CCN(c7ccc8c(c7)n(C)c(=O)n8C7CCC(=O)NC7=O)CC6)CC5)ccc4c23)C(=O)N1 (some centres unmarked)", "test-target": "MK2 (Homo sapiens, UniProt P49137)", "experimental-readout": "Dmax", "reported-value": "< 50%"}
{"compound": "Cn1c(=O)n(C2CCC(=O)NC2=O)c2ccc(N3CCC(CN4CCN(c5ccc(-c6cc(-c7cc8c([nH]7)CCNC8=O)ccn6)c(F)c5)CC4)CC3)cc21 (centres unmarked)", "test-target": "MK2 (Homo sapiens, UniProt P49137)", "experimental-readout": "Dmax", "reported-value": "> 75%"}
{"compound": "C[C@@H]1CNc2c(sc3ccc4nc(-c5ccc(N6CCN(CC7CCN(c8ccc9c(c8)CN(C8CCC(=O)NC8=O)C9=O)CC7)CC6)cc5)ccc4c23)C(=O)N1 (some centres unmarked)", "test-target": "MK2 (Homo sapiens, UniProt P49137)", "experimental-readout": "Dmax", "reported-value": "> 75%"}
{"compound": "C[C@@H]1CN(C)c2c(sc3ccc4nc(-c5ccc(N6CCN(CC7CCN(c8cccc9c8n(C)c(=O)n9C8CCC(=O)NC8=O)CC7)CC6)cc5)ccc4c23)C(=O)N1 (some centres unmarked)", "test-target": "MK2 (Homo sapiens, UniProt P49137)", "experimental-readout": "Dmax", "reported-value": "> 75%"}
{"compound": "C[C@@H]1CNc2c(sc3ccc4nc(-c5cccc(N6CCN(CCCc7ccc8c(c7)n(C)c(=O)n8C7CCC(=O)NC7=O)CC6)c5)ccc4c23)C(=O)N1 (some centres unmarked)", "test-target": "MK2 (Homo sapiens, UniProt P49137)", "experimental-readout": "Dmax", "reported-value": "> 75%"}
{"compound": "Cn1c(=O)n(C2CCC(=O)NC2=O)c2ccc(CCCN3CCN(c4cccc(-c5ccc(-c6cc7c([nH]6)CCNC7=O)cn5)c4)CC3)cc21 (centres unmarked)", "test-target": "MK2 (Homo sapiens, UniProt P49137)", "experimental-readout": "Dmax", "reported-value": "< 50%"}
{"compound": "C[C@@H]1CNc2c(sc3ccc4nc(-c5ccc(N6CCN(CC7CN(c8ccc9c(c8)n(C)c(=O)n9C8CCC(=O)NC8=O)C7)CC6)cc5F)ccc4c23)C(=O)N1 (some centres unmarked)", "test-target": "MK2 (Homo sapiens, UniProt P49137)", "experimental-readout": "Dmax", "reported-value": "> 75%"}
{"compound": "C[C@@H]1CNc2c(sc3ccc4nc(-c5cc(Cl)cc(N6CCN(CC7CCN(c8ccc9c(c8)n(C)c(=O)n9C8CCC(=O)NC8=O)CC7)CC6)c5)ccc4c23)C(=O)N1 (some centres unmarked)", "test-target": "MK2 (Homo sapiens, UniProt P49137)", "experimental-readout": "Dmax", "reported-value": "> 75%"}

Given C[C@@H]1CNc2c(sc3ccc4nc(-c5ccc(N6CCN(CC7CCN(c8cccc(C9CCC(=O)NC9=O)c8)CC7)CC6)nc5)ccc4c23)C(=O)N1 (some centres unmarked) , state its recorded Dmax. > 75%

Now the same for C[C@@H]1CNc2c(sc3ccc4nc(-c5cccc(N6CCC(CN7CCC(c8cccc9c8n(C)c(=O)n9C8CCC(=O)NC8=O)CC7)CC6)c5)ccc4c23)C(=O)N1 (some centres unmarked) > 75%

Then `O=C1CCN(c2cncc3c(N4CCC(CN5CCN(c6ccc(-c7cc(-c8cc9c([nH]8)CCNC9=O)ccn7)cc6)CC5)CC4)cccc23)C(=O)N1` ? 50 to 75%

====

Dmax overview
- test-target: MK2 (Homo sapiens)
- method-notes: MK2 degradation in human SW1353 cells (MSD, 24 h)
- Assay type: cell-based
- Set-up: endogenous in cells; host or cells: SW-1353 (ATCC HTB-94)
- experimental-conditions: read-out: MK2 MSD SW 1353 24 h Dmax %

// known answers, use as guide
{"molecule": "C[C@@H]1CNc2c(sc3ccc4nc(-c5ccc(N6CCC(CN7CCN(c8cccc9c8n(C)c(=O)n9C8CCC(=O)NC8=O)CC7)CC6)cc5F)ccc4c23)C(=O)N1 (stereo partly drawn)", "Dmax": "> 75%"}
{"molecule": "COc1cc(-c2ccc3c(ccc4sc5c(c43)NC[C@@H](C)NC5=O)n2)cc(N2CCN(CC3CCN(c4ccc5c(c4)n(C)c(=O)n5C4CCC(=O)NC4=O)CC3)CC2)c1 (stereo partly drawn)", "Dmax": "> 75%"}
{"molecule": "C[C@@H]1CNc2c(sc3ccc4nc(-c5ccc(N6CCN(C(=O)COCCOCCOCCOCCc7ccc8c(c7)n(C)c(=O)n8C7CCC(=O)NC7=O)CC6)cc5)ccc4c23)C(=O)N1 (stereo partly drawn)", "Dmax": "> 75%"}

Continue with the molecule presented below.
Give the reported Dmax for C[C@@H]1CNc2c(sc3ccc4nc(-c5cc(N6CCC(CN7CCN(c8cccc9c8n(C)c(=O)n9C8CCC(=O)NC8=O)CC7)CC6)ccc5F)ccc4c23)C(=O)N1 (stereo partly drawn) (system: MK2 (Homo sapiens)). > 75%

Source listed as patent US20230135894A1.
